system: CP203; assay: qHTS profiling for inhibitors of Plasmodium falciparum proliferation (AID 504749); further: nearly all actives have a fitted effect of over 60% in size; details: P. falciparum in erythrocytes, SYBR Green DNA, 72 h; series mostly up to 28.7 µM
Records with an inconclusive call do not appear. Calls of active or inactive are those of the source. The call rests on the fitted dose curve; in most records, active means well fitted inhibition curve with a large enough effect; inconclusive means small, poorly fitted or top-dose-only effect; inactive means flat fitted curve, though single readings scatter.
Thanks in advance; please answer with one of these: t (active), f (inactive)

compound | class_label
CCC(C)C(N)C(=O)O (centres undefined) | f
Oc1cc2cc(CCN3CCN(c4nsc5ccccc45)CC3)c(Cl)cc2[nH]1 | f

Moving on to the next compound.
Called result for NCCCCC(N)C(=O)O (centres undefined) f

* * *

system: ECU; assay: qHTS profiling for inhibitors of Plasmodium falciparum proliferation (AID 504749); further: nearly all actives have a fitted effect of over 60% in size; conditions: P. falciparum in erythrocytes, SYBR Green DNA, 72 h; series mostly up to 28.7 µM
Records with an inconclusive call do not appear. The source made the active and inactive calls. The call rests on the fitted dose curve; in most records, active means well fitted inhibition curve with a large enough effect; inconclusive means small, poorly fitted or top-dose-only effect; inactive means flat fitted curve, though single readings scatter.
Tick one outcome: active, inactive

Below are worked cases with known answers.
compound | class_label
CN[C@H](C)CCC=C(C)C | active
CCN(CC)CC(=O)Nc1c(C)cc(C)cc1C | inactive
COc1cccc(OC)c1C(=O)NC1C(=O)N2C1SC(C)(C)C2C(=O)O (stereo not drawn) | inactive
CN1[C@@H]2CC[C@@H]1CC(OC(=O)[C@H](CO)c1ccccc1)C2 (stereo partly drawn) | inactive

Outcome logged for CC(=O)NC1[C@H]([C@H](O)[C@H](O)CO)OC(C(=O)O)=C[C@H]1N=C(N)N (stereo partly drawn) in this assay: inactive

Check the results log: what was the call for C=C1C(n2cnc3c(=O)[nH]c(N)nc32)C[C@H](O)[C@H]1CO (stereo partly drawn) ? inactive

// param item: O=C1CC[C@H](C(=O)N[C@@H]2C[C@H]2c2ccccc2)N1 ; yields the recorded call inactive

Dear all, I need the recorded test outcome for CC12C=CC(=O)C=C1[C@@H](F)CC1C2C(O)CC2(C)C1CC[C@]2(O)C(=O)CO (stereo partly drawn) , thank you. inactive

Please share the test call associated with CC(CCC(=O)O)C1CCC2C3C(=O)C[C@@H]4CC(=O)CC[C@@]4(C)C3CC(=O)[C@]12C (stereo partly drawn) . inactive

Which result was noted for this compound in the test: CNC1CCc2cc(OC)c(OC)c(OC)c2-c2ccc(OC)c(=O)cc21 (stereo not drawn) inactive

Can you look up the reported call for CC1(C)CC1C(=O)N/C(=C/CCCCSCC(N)C(=O)O)C(=O)O (stereo not drawn) for me? inactive

So what was the verdict on C=NC(C(=O)NC1C(=O)N2C1SC(C)(C)C2C(=O)O)c1ccccc1 (stereo not drawn) in this test? inactive

* * *

target: 3',5'-cyclic-AMP phosphodiesterase 4B (Homo sapiens); assay: qHTS Assay for Inhibitors of PDE-IV (AID 607); conditions: HEK293 ACTOne CNG channel cells, membrane potential fluorescence; series mostly up to 22.9 µM
Records with an inconclusive call do not appear. Activity calls are given as the source filed them. The call rests on the fitted dose curve; in most records, active means well fitted activation curve with a large enough effect in the main read-out, with a control signal flat (not every such curve was filed as active); inconclusive means small, poorly fitted or top-dose-only effect, or effect the other way, or a change in a side signal; inactive means flat fitted curve, though single readings scatter.
quantity_name: outcome

compound | reported_measurement
C/C=C\C[C@H](C)[C@H](O)[C@H]1C(=O)N[C@@H](CC)C(=O)N(C)CC(=O)N(C)[C@@H](CC(C)C)C(=O)N[C@@H](C(C)C)C(=O)N(C)[C@@H](CC(C)C)C(=O)N[C@@H](C)C(=O)N[C@@H](C)C(=O)N(C)[C@@H](CC(C)C)C(=O)N(C)[C@@H](CC(C)C)C(=O)N(C)[C@@H](C(C)C)C(=O)N1C | inactive
CC(=O)O[C@H]1CC[C@@]2(C)[C@@H](CC[C@@]3(C)[C@H]2C(=O)C=C2[C@H]4C[C@](C)(C(=O)OCCN5CCCCC5)CC[C@]4(C)CC[C@@]23C)C1(C)C | inactive
